Below, each entry is listed with its recorded kon.
# Target Desc: SARS-COV-2 RBD extracellular domain expressed with a C-terminal mouse IgG2a Fc (SARS-CoV-2)
# Procedure Summary: Biacore SPR, mAb captured on anti-hFc, 37 C

# Binder, kon, M⁻¹ s⁻¹
measured = [
    ("mAb14289 (antibody, V domains shown) VH: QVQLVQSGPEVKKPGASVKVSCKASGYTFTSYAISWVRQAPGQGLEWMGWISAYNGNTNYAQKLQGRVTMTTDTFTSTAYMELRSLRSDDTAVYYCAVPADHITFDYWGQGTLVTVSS VL: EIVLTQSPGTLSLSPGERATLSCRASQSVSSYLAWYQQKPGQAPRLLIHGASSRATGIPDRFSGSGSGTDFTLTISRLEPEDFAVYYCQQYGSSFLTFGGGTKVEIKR", "1.41e+06"),
    ("mAb15159 (antibody, V domains shown) VH: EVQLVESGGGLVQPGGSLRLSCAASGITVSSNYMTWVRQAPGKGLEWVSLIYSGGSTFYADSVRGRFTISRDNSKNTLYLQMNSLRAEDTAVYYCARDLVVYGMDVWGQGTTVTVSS VL: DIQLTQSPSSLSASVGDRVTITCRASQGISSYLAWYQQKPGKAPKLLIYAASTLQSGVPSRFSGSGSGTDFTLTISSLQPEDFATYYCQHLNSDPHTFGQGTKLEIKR", 220000),
    ("mAb14235 (antibody, V domains shown) VH: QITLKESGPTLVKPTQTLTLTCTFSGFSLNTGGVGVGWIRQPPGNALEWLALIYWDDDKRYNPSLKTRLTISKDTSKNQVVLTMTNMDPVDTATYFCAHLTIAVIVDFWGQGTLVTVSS VL: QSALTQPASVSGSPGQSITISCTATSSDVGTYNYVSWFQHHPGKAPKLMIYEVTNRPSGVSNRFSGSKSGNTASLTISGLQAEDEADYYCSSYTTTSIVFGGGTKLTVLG", "1.09e+06"),
]
